# tgt: human ACC2 (Homo sapiens, UniProt O00763)
# Construct: made in house; host or cells: insect cells (baculoviral expression system)
# Sequence (O00763 129-2458 limits assumed): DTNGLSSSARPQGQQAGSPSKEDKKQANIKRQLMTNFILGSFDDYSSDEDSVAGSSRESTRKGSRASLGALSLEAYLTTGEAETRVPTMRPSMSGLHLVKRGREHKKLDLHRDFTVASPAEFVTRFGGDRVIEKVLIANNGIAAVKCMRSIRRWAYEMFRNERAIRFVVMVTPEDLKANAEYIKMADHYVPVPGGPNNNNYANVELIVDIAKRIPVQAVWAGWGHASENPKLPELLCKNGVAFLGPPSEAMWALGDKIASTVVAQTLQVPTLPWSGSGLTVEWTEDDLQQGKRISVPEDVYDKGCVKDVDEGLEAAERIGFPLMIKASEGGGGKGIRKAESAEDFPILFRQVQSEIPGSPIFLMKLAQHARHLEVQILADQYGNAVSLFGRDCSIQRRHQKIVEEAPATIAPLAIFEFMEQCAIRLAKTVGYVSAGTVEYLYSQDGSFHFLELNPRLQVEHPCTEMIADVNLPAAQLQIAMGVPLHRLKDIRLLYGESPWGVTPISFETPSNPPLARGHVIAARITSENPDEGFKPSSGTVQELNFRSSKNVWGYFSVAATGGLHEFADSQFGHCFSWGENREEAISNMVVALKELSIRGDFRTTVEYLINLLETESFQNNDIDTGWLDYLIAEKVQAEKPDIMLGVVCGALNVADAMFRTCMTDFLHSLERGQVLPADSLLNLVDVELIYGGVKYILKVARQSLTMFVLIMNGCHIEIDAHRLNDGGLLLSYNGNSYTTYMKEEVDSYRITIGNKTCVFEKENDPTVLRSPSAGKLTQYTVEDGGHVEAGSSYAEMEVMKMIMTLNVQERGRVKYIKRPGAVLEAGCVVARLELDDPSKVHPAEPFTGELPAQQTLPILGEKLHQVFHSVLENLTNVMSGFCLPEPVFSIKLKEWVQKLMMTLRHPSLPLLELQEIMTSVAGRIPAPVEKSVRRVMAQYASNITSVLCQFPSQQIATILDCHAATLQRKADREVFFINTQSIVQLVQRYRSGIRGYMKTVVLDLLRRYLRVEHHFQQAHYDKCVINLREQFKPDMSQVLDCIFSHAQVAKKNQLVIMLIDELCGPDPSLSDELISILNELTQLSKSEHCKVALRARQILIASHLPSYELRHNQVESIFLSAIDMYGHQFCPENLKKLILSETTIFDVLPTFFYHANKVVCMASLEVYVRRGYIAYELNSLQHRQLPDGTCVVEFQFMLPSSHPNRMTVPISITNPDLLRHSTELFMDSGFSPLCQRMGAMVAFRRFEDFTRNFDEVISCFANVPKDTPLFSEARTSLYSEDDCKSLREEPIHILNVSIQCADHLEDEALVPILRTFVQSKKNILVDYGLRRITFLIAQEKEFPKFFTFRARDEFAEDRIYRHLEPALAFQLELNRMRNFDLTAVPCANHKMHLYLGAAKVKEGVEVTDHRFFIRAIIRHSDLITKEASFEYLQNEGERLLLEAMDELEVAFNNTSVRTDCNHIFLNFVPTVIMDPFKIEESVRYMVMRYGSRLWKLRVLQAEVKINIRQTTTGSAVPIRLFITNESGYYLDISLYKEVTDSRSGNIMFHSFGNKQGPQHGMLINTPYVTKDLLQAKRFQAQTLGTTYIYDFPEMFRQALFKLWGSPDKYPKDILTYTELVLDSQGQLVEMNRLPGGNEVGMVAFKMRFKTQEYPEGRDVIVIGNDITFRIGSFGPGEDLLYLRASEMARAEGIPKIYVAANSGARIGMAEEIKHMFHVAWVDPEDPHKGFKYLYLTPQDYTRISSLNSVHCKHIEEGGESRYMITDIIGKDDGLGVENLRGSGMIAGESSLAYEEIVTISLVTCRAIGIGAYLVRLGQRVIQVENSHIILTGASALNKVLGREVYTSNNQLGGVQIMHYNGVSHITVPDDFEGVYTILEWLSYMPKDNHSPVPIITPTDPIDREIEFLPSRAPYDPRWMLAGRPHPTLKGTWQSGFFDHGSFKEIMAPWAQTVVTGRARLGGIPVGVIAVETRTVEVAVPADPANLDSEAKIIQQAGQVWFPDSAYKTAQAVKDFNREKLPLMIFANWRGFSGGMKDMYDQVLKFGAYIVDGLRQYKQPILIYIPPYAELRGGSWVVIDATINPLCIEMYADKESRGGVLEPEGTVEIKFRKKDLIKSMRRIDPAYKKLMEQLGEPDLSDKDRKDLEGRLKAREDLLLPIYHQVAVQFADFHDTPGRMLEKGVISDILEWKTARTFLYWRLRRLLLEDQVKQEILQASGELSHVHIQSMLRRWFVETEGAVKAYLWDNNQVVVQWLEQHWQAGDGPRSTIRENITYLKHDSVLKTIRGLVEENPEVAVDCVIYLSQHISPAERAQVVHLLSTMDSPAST
# assay_procedure: ACC2 assay, spectrophotometric 384 well assay (NADH-linked, coupled lactate dehydrogenase/pyruvate kinase)
# Format: biochemical
# condition_parameters: ACC2 assay, hACC2 construct lacking 128 N-terminal amino acids, 25° C., 340 nm; read-out: IC50
recorded_metric: IC50 (nM)
Unit nM implied. Number only.

Query: IC50; subject: CC(=O)N[C@@H](C)c1ccc(C2CCN(c3ncc(C(=O)N[C@H]4C[C@H](N)C4)cn3)CC2)cc1 24500

What about this compound? CC(=O)N[C@@H](C)c1ccc(C2CCN(c3ccc(OC4CC4)cc3C)CC2)cc1 120

What about this compound? CC(=O)N[C@@H](C)c1ccc(C2CCN(c3ncc(C(=O)NC4CCN(C)C4)cn3)CC2)cc1 (some centres unmarked) 16500

What about this compound? CC(=O)N[C@@H](C)c1ccc(C2CCN(c3cc(N(C)C4CC4)ncn3)CC2)cc1 790

What about this compound? CCOc1ccc(N2CCC(c3ccc([C@H](C)NC(=O)CNC(=O)OC(C)(C)C)cc3)CC2)cc1 8300

What about this compound? CC(=O)N[C@@H](C)c1ccc(C2CCN(c3ccnc(Oc4ccc(F)cc4)n3)CC2)cc1 180

What about this compound? CC(=O)N[C@@H](C)c1ccc(C2CCN(c3ncc(C(=O)NCC4CC4)cn3)CC2)cc1 1700

What about this compound? CC(=O)N[C@@H](C)c1ccc(C2CCN(c3cnc(C4CC4)cn3)CC2)cc1 820
